target: Recombinant full length human OGA enzyme (Homo sapiens); construct: Recombinant full length human OGA enzyme was purchased from Origene; assay: OGA Enzyme Inhibition Biochemical Assay; details: 1 nM OGA, 100 μM 4-MUGlcNAc (Km), pH 6.4, 90 minutes at room temperature; 10-point dose-response starting from 20 μM
Sequence (O60502 whole entry): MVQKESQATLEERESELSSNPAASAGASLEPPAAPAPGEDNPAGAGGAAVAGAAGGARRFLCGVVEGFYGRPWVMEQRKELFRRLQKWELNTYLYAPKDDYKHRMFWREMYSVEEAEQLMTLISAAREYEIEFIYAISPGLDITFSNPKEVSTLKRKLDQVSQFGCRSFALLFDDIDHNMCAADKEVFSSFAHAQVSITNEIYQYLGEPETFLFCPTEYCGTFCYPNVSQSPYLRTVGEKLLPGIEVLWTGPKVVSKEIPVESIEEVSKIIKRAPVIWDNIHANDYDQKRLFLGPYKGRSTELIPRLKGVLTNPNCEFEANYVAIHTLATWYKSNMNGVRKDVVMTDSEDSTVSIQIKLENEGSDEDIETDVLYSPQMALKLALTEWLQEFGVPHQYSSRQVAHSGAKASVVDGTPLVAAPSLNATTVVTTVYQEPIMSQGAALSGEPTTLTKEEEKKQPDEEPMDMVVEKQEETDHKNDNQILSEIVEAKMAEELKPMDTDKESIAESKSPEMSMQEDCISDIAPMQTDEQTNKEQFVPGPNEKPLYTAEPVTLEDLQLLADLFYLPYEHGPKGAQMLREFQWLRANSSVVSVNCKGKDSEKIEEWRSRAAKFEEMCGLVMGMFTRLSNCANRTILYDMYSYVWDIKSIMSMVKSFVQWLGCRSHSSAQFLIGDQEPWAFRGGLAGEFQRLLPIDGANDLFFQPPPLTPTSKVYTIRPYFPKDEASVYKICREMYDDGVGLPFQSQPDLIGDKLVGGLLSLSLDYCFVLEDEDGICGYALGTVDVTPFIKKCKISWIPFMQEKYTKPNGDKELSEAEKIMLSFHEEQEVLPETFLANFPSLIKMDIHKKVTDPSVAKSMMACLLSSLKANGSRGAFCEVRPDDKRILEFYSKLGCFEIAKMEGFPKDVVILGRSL
pIC50: −log10 of the molar value.
measured.parameter: pIC50

CC(=O)Nc1ncc(CN2C[C@@H](COc3cc(C)nc(C)c3)N(C(C)=O)C[C@@H]2C)s1: 4.96

P = CC(=O)Nc1ncc(CN2C[C@@H](Cc3ccnc(C)c3)N(C(C)=O)C[C@@H]2C)s1
Q = CC(=O)Nc1ncc(CN2CCOC(C(C)c3ncc(F)cn3)C2)s1 (single isomer, unassigned) [Example 1-25 Peak 2]
I'm curious whether P or Q has the smaller pIC50 number. Which is it? Provide the label of your selected option as the answer.
P
(P: 5.12, Q: 7.14)
